The reported numbers originate from ChEMBL document CHEMBL1201862.

Tested on: COLO 205
Test method notes: NCI tumour cell line growth inhibition, 48 h
Calls of active or inactive are those of the source. Rule as the data show it: active = GI50 up to about 1.1 µM and inactive = higher.
Reported metric: GI50

Given the entry COC(=O)C1=C(O)C(C(=O)OC)[C@]2(O)[C@H](C(=O)OC)[C@H]1C[C@@H](c1ccc([N+](=O)[O-])cc1)[C@H]2C(=O)OC (stereo not given in full) , report its measured GI50.
25 µM (inactive)

What value of GI50 has been reported for the following compound? "Cn1c(=O)c2c(nc(NCCCCl)n2CC(=O)O)n(C)c1=O"
> 100 µM (inactive)

Report GI50 for "O=C(C#Cc1ccccc1)C1=Cc2ccccc2OC1" please.
1.92 µM (inactive)

Quick one: GI50 for COc1cc(C2c3cc4c(cc3[C@@H](NCCCN3CCCC3=O)C3COC(=O)[C@H]23)OCO4)cc(OC)c1O (stereo not given in full) ?
4.17 µM (inactive)

// returns reported GI50 for input O=C(O)C1CCC(=O)N1C(=O)C(Cl)c1ccccc1 (stereo not given)
> 100 µM (inactive)

Consider the compound shown here: COC(c1ccsc1)C(C#N)(C#N)/N=C/c1ccsc1 (stereo not given) What is its recorded GI50?
16.5 µM (inactive)

What value of GI50 has been recorded for this entry: "O=C(O)[C@H]1[C@@H](C2CCCCC2)O[C@@H](C2CCCCC2)O[C@H]1C(F)(F)F"
20.4 µM (inactive)

Would you mind telling me what GI50 value was observed for "O=C(/C=C/c1ccccc1)CC(=O)CCC(=O)Nc1ccc(Cl)cc1" ?
> 100 µM (inactive)

What value of GI50 has been recorded for this entry: "CCCCNC(=S)Nc1nc(C(=O)NNC(=S)NC2CCCCC2)cs1"
> 100 µM (inactive)

Consider the compound shown here: "CCOC(=O)C#Cc1cccc(C#CC(=O)OCC)c1" What is its recorded GI50?
5.32 µM (inactive)

Any idea what its GI50 is? The compound is Cc1cccc(C)c1N1C(=O)C(=O)C(c2nc3ccccc3s2)/C(=N\N)C1=O (stereo not given)
> 100 µM (inactive)

I am curious: what GI50 value has been reported for "c1c[nH]c(-c2cccc3nsnc23)c1" ?
13.5 µM (inactive)

Which GI50 reading was recorded for the compound "O=C1C(N2CCN(CCOCCO)CC2)=C(Cl)C(=O)c2ncccc21" ?
8.28 µM (inactive)

Fill blank: measured GI50 of the compound "c1cc(-c2ccc(Oc3ccc(-c4ccncc4)cc3)cc2)ccn1" is ____.
3.56 µM (inactive)

Quick one: GI50 for "Cc1ccc(-c2n[nH]c(=O)n2/N=C\c2ccccc2)cc1" ?
74.1 µM (inactive)

Which value of GI50 has been reported for "c1ccc([P+](Cc2ccccc2C[P+](c2ccccc2)(c2ccccc2)c2ccccc2)(c2ccccc2)c2ccccc2)cc1" in the records?
> 100 µM (inactive)

Given "Cn1c(=O)c2c(nc3sc4ccccc4c(=O)n32)n(C)c1=O" , state its recorded GI50.
> 100 µM (inactive)

Suppose we examine the compound COC(=O)C(NC(=O)c1ccccc1)C(c1c(O)cc(O)cc1O)P(=O)(OC)OC (stereo not given) ; what GI50 value has been reported?
> 100 µM (inactive)

Using the record for C/C=C/C(C#N)(Cc1ccccc1)OP1(=O)OC(c2ccccc2)C(C)N1C (stereo not given) , report its GI50.
> 100 µM (inactive)

For CCCCCCCCCCCCCCCCCCOC(COP(=O)(O)OCC1OC(n2cc(F)c(=O)[nH]c2=O)CC1O)COP(=O)(O)OCC1OC(n2ccc(N)nc2=O)C(O)C1O (stereo not given) , what is its reported GI50?
20.8 µM (inactive)

====

Test system: SK-OV-3
Test method notes: NCI tumour cell line growth inhibition, 48 h
Calls of active or inactive are those of the source. No stated cut-off is given here; in the data, active = GI50 up to about 1.1 µM and inactive = higher.
Reported metric: GI50

Please tell me: GI50 of "CC(C)(C)c1ccccc1N1C(=O)c2ccc3c4c(ccc(c24)C1=O)N(c1ccccc1C(C)(C)C)C3=O" , system SK-OV-3?
> 100 µM (inactive)

Give SK-OV-3 GI50 for CCCCCCCCCC[C@@H](O)[C@@H]1CC[C@H]([C@H]2CC[C@@H]([C@@H](O)CCCCCCCCCC[C@H]3CC(CC(C)=O)C(=O)O3)O2)O1 (some centres undefined)
17.3 µM (inactive)

What value of GI50 on SK-OV-3 does "C=C(C(N)=O)c1ccc([N+](=O)[O-])o1" have?
30.8 µM (inactive)

Provide the documented GI50 with SK-OV-3 as the system for "O=C1C[C@@H]2[C@@H](C=CC23CCCC3)N1O"
> 100 µM (inactive)

// lookup GI50 | system=SK-OV-3 | key= COC(=O)/C(C#N)=C1\CCC(O)N1 (centres undefined)
> 100 µM (inactive)

Hello, I am looking for reported GI50 with SK-OV-3 for "Cc1ccc(I)cc1N=C=S" . Could you help?
37.3 µM (inactive)

Identify the measured GI50 of "CN(/N=C/C=N/N(C)C1=NCCN1)C1=NCCN1" for SK-OV-3.
> 100 µM (inactive)

What measured GI50 is associated with N#CC12C3C4CC5C6C4C1C6C(O)(C53)N2Cc1ccccc1 (centres undefined) on SK-OV-3?
> 100 µM (inactive)

Field: GI50 (SK-OV-3). Entry: COC(=O)C1=C(O)C(C(=O)OC)[C@]2(O)[C@H](C(=O)OC)[C@H]1C[C@@H](c1c(Cl)cccc1Cl)[C@H]2C(=O)OC (some centres undefined)
3.96 µM (inactive)

====

System: NCI-H226
Test method notes: NCI tumour cell line growth inhibition, 48 h
Calls of active or inactive are those of the source. No stated cut-off is given here; in the data, active = GI50 up to about 1.1 µM and inactive = higher.
Classes to choose from: active, inactive

Would you mind telling me which call this test gave Nc1nc(=O)c2c([nH]1)NCC(CNc1ccc(C(=O)N[C@@H](CCC(=O)O)C(=O)O)cc1)N2C=O (some centres undefined) [LEUCOVORIN CALCIUM] ?
inactive

Which outcome did this test record for the compound "COc1cccc(Cc2cc(=O)c3ccc(C)nc3[nH]2)c1" ?
inactive

Hi team, can someone confirm the assay call for "CC#COP(=O)(OCC)OCC" ?
inactive

Dear colleague, could you share the recorded outcome for CC[C@@]1(O)C(=O)OCc2c1cc1n(c2=O)Cc2c-1nc1ccccc1c2/C=N\NC(=O)C1CCCN1 (some centres undefined) when you have a moment?
active

// param item: CCCCCCCCCCCCCCCCCCOP(=O)([O-])OCC[N+](C)(C)C [OCTADECYLPHOSPHONOCHOLINE] ; yields the recorded call
active

Could you please tell me the result logged for "O=c1[nH]c(-n2[nH]c3c(c2=O)CCCC3)nc(O)c1-c1ccccc1" in this assay?
inactive

Short answer needed: outcome of this test for Cn1c(C2CCCc3c2c2ccccc2n3C)cc2ccccc21 (centres undefined) ?
inactive

Look up the recorded call for "C=C1C(=O)O[C@@H]2[C@H](O)[C@@H](C)[C@@H]3C=CC(=O)[C@@]3(C)[C@H](OC(=O)C=C(C)C)[C@H]12" in this test.
inactive

Tell me the assay call for CSC1=C(C#N)C(=O)N(c2ccc(Cl)cc2)C(=O)C1C#N (centres undefined) please.
inactive

====

Tested on: UACC-62
Test method notes: NCI tumour cell line growth inhibition, 48 h
The source made the active and inactive calls. No stated cut-off is given here; in the data, active = GI50 up to about 1.1 µM and inactive = higher.
Entry note: the call must match one of Yes (active), No (inactive)

Just curious, what result did "O=C(Nc1nc2ncn(CCO)c2c(=S)[nH]1)c1ccccc1" get here?
No

Recorded test call requested for "COc1cc(C(=O)Oc2c(C(C)=O)sc3c2c(=O)n(-c2ccccc2)c(=S)n3-c2ccccc2)cc(OC)c1OC"
No

Could you kindly confirm the outcome this assay logged for CCOC(=O)C1N(S(=O)(=O)c2ccc(C)cc2)CCC12c1ccccc1NC2c1ccc(OC)c(OC)c1 (stereo unspecified) ?
No

I'd appreciate the recorded outcome for "CSc1cnn(CCC#N)c(=O)n1" from this test.
No

Test call, this molecule: CCOC(=O)N1c2ccccc2C(C)=CC(C)C1C (stereo unspecified)
No

Per the assay record, what outcome was assigned to CC(N)Cc1cccc(C(F)(F)F)c1 (stereo unspecified) ?
No

For "CCOC(=O)C1=C(N)N(c2ccccc2)/C(=C2\SC(=S)N(c3ccc(C)cc3)C2=O)S1" , which call appears in the assay record?
No

Fill in: this test's call for "COc1cccc(-c2cc(O)c3cc(NC(C)=O)ccc3n2)c1" is ___
No

For "ClCCCN1CCN(CCCl)CC1" , which call appears in the assay record?
No

Please state the recorded outcome for this molecule: CC(=O)O[C@H]1C(=O)[C@@]2(C)C(C(OC(=O)c3ccccc3)[C@]3(O)CC(OC(=O)C(O)C(NC(=O)c4ccccc4)c4ccc(F)cc4)C(C)=C1C3(C)C)[C@]1(OC(C)=O)CO[C@@H]1C[C@@H]2O (stereo partly specified)
Yes

What did this assay record as the result for "COc1cc2ccnc([C@@H](OC(=O)c3ccccc3)c3ccc(OC)c(OC)c3OC)c2cc1OC" ?
No

Fill in: this test's call for "CCOC(=O)c1c(C)cc(=O)n2c1[nH]c1ccccc12" is ___
No

I would be grateful if you could indicate the recorded call for "CN1CCN(c2nc(N)c(Br)c(Cl)n2)CC1" .
No

Identify the outcome logged in this assay for the molecule shown: "c1c[nH]c(-c2cccc3nsnc23)c1"
No

// outcome(item) with item = "Fc1cccc2c1cc1ccc3cccc4ccc2c1c34"
No

// outcome(item) with item = "O=C(c1c(Cl)cc(Cl)cc1Cl)N(Cc1cccnc1)C(=S)N(Cc1cccnc1)C(=O)c1c(Cl)cc(Cl)cc1Cl"
No

In this assay, the call recorded for "Nc1ccc(Cc2c(N)[nH]c(=O)[nH]c2=O)cc1" was what?
No

Dear colleague, could you share the recorded outcome for CC1=NNC(=O)[C@H]2[C@H]1CCC1[C@@H]2CC[C@]2(C)[C@@H](O)CC[C@@H]12 (stereo partly specified) when you have a moment?
No

Answer briefly: the call reported for C[N+](C)(C)CC1CCCCC1=O (stereo unspecified) in this assay.
No

Write down the call the test reported for this molecule. Item: C/C(=N/NC(N)=S)C(CN(C)C)C(C1=C(O)c2ccccc2OC1)c1ccccc1 (stereo unspecified)
No

# outcome recorded in this test, key = "O=[N+]([O-])c1ccc2c3c1[C@H]1O[C@H]1c1cccc(c1-3)[C@@H]1O[C@H]21"
No
